# Test system: GM1 production in Jurkat cells
# Protocol Summary: cells
# Type: cell-based
# Condition Summary: Homo sapiens, Jurkat, 72 h
Please go through the items and note down their IC50.
Answers are plain numbers, in nM.

Below is a list of compounds. For each, state its recorded IC50.
1. CCCOc1ccc(F)cc1-c1ccc2c(c1)CC(C)(C)C2NC(=O)O[C@@H]1CN2CCC1CC2 (some centres unmarked)
2. CC1(C)CC(NC(=O)O[C@@H]2CN3CCC2CC3)c2ccc(-c3ccccc3Cl)cc21 (some centres unmarked)
3. CC1(C)Cc2cc(-c3cccc(Cl)c3)ccc2C1NC(=O)O[C@@H]1CN2CCC1CC2 (some centres unmarked)
4. COc1ccc(Cl)c(-c2ccc3c(c2)CC(C)(C)C3NC(=O)O[C@@H]2CN3CCC2CC3)c1 (some centres unmarked)
5. CCOc1ccc(Cl)cc1-c1ccc2c(c1)CC(C)(C)C2NC(=O)O[C@@H]1CN2CCC1CC2 (some centres unmarked)

Return:
1: 39.8; 2: 108; 3: 3.5; 4: 4.7; 5: 19.1

Provide reported IC50 for each item, in the same order as listed.
1. CC1(C)Cc2cc(-c3ccc(OCC4CC4)nc3)ccc2C1NC(=O)O[C@@H]1CN2CCC1CC2 (some centres unmarked)
2. CSc1cccc(-c2ccc3c(c2)CC(C)(C)C3NC(=O)O[C@@H]2CN3CCC2CC3)c1 (some centres unmarked)
3. Cc1ccc(Cl)c(-c2ccc3c(c2)CC(C)(C)C3NC(=O)O[C@@H]2CN3CCC2CC3)c1 (some centres unmarked)

Return:
1. 11.1
2. 6.3
3. 5.2

---

# Test system: GM1 production in Jurkat cells
# Protocol Summary: cells
# Format: cell-based
# Condition Summary: Homo sapiens, Jurkat, 72 h
Measure Name: IC50
The answer consists of two parts: a number and, after it, its unit.

See these solved cases before continuing.
CCOc1ccc(-c2ccc3c(c2)CC(C)(C)C3NC(=O)O[C@@H]2CN3CCC2CC3)cc1 (some centres unmarked) : 22.7 nM
CCCc1ccc(-c2cc3c(cc2OC)C(NC(=O)O[C@@H]2CN4CCC2CC4)C(C)(C)C3)cc1 (some centres unmarked) : 7.3 nM
CC1(C)Cc2cc(-c3ccco3)ccc2C1NC(=O)O[C@@H]1CN2CCC1CC2 (some centres unmarked) : 15.3 nM
O=C(NC1c2ccc(-c3ccc(OC(F)(F)F)cc3)cc2CC12CC2)O[C@@H]1CN2CCC1CC2 (some centres unmarked) : 41.9 nM
CC1(C)Oc2cc(-c3cccc(C(F)(F)F)c3)ccc2C1NC(=O)O[C@@H]1CN2CCC1CC2 (some centres unmarked) : 14.9 nM

Please supply IC50 for each of the following items, keeping them in order.
1. CCC1(CC)Cc2cc(-c3ccc(OC(C)C)cc3)ccc2C1NC(=O)O[C@@H]1CN2CCC1CC2 (some centres unmarked)
2. CC1(C)Cc2cc(-c3cccc(-c4ccccc4)c3)ccc2C1NC(=O)O[C@@H]1CN2CCC1CC2 (some centres unmarked)
3. CCOc1ccc(-c2cc3c(cc2OC)C(NC(=O)O[C@@H]2CN4CCC2CC4)C(C)(C)C3)cc1 (some centres unmarked)

Return:
1: 4.1 nM; 2: 13.3 nM; 3: 20 nM

---

# Test system: GM1 production in Jurkat cells
# Protocol Summary: cells
# Type: cell-based
# Condition Summary: Homo sapiens, Jurkat, 72 h
Provide the reported pIC50 of each item.
One number for each entry, as −log10 of the molar value.

CCc1ccc(-c2cc3c(cc2F)C(NC(=O)O[C@@H]2CN4CCC2CC4)C(C)(C)C3)cc1 (stereo partly shown) [Example 349] : 7.99
O=C(NC1CCc2ccc(-c3ccc(F)c(F)c3F)cc21)O[C@@H]1CN2CCC1CC2 (stereo partly shown) [Example 45] : 7.24
CC(C)COc1cccc(-c2cc3c(cc2F)C(NC(=O)O[C@@H]2CN4CCC2CC4)C(C)(C)C3)c1 (stereo partly shown) [Example 380] : 7.44

Go through the items and report each one's pIC50.
1. COCOc1cccc(-c2ccc3c(c2)CC(C)(C)C3NC(=O)O[C@@H]2CN3CCC2CC3)c1 (stereo partly shown) [Example 101]
2. CC(C)COc1cccc(-c2ccc3c(c2)CC(C)(C)C3NC(=O)O[C@@H]2CN3CCC2CC3)c1 (stereo partly shown) [Example 205]
3. Cc1ccc(-c2ccc3c(c2)CC(C)(C)C3NC(=O)O[C@@H]2CN3CCC2CC3)cc1F (stereo partly shown) [Example 215]
4. O=C(NC1CCc2cc(-c3cc(Cl)cc(Cl)c3)ccc21)O[C@@H]1CN2CCC1CC2 (stereo partly shown) [Example 22]
5. CC1(C)Cc2cc(-c3cc4ccccc4o3)ccc2C1NC(=O)O[C@@H]1CN2CCC1CC2 (stereo partly shown) [Example 158]
6. O=C(NC1CCc2ccc(-c3cc(Cl)ccc3Cl)cc21)O[C@@H]1CN2CCC1CC2 (stereo partly shown) [Example 46]
7. CN(C)c1cccc(-c2ccc3c(c2)CC(C)(C)C3NC(=O)O[C@@H]2CN3CCC2CC3)c1 (stereo partly shown) [Example 106]

Return:
[8.06, 8.12, 7.83, 7.05, 7.77, 7.72, 8.24]
